B1: HDV Ribozyme (parent)
chain: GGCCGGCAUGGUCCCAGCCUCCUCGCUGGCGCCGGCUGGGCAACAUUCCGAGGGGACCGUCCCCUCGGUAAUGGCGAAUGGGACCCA

Variants of: B1
test method notes: self-cleavage, relative activity (ratio to wild type); higher = more cleavage; co-transcriptional
Readings of self-cleavage for the listed variants
measured attribute: self-cleavage

>>> result("A43U C75U")
0.128
>>> result("G17U A45C")
0.161
>>> result("A51G C66G")
0.989
>>> result("G6C C15A")
0
>>> result("G17C C22G")
0.208
>>> result("C18U G52A")
0.737
>>> result("C14U C48A")
0.928
>>> result("C13A C64G")
0.19
>>> result("C30A U79C")
0.216
>>> result("C14A C63A")
0.755
>>> result("U37C C75G")
0.0627
>>> result("U47G G53A")
1.15
>>> result("U46C G82A")
0.224
>>> result("C13U A78C")
0.119
>>> result("G1U G76C")
0.277
>>> result("U12A U79G")
0.302
>>> result("C33A C57U")
0.46
>>> result("C18U U37C")
0.554
>>> result("G40A A83C")
0.272
>>> result("C13G A42C")
0
>>> result("C61G A87G")
0.994
>>> result("G11C U27A")
0.646
>>> result("C3G U46A")
0.253
>>> result("G2C C32A")
0.0712
>>> result("U47G A56C")
1.09
>>> result("A70G A77C")
0.178
>>> result("C19U C66G")
0.155
>>> result("G34C A51U")
0.141
>>> result("G1A G6U")
0
>>> result("C49U G54C")
0.856
>>> result("C7G A71U")
0.0639
>>> result("C44U G59C")
0.997
>>> result("C30U A70C")
0.525
>>> result("G29A A70U")
0.0739
>>> result("U37A G52U")
0.214
>>> result("A56U U60A")
1.13
>>> result("G6C U65G")
0.115
>>> result("C32A G80U")
0.0472
>>> result("G10A G25U")
0.0678
>>> result("U27C A83U")
0.465
>>> result("A16C C63U")
0.895
>>> result("A8U C44A")
0.449
>>> result("C57U U60G")
0.702
>>> result("C30U G54A")
0.571
>>> result("G6A G25U")
0.089
>>> result("C7G A56C")
0.391
>>> result("U9A U69C")
0.802
>>> result("G5A U69C")
0.208
>>> result("U12G G67U")
0.731
>>> result("C44A U79A")
0.244
>>> result("C14A G76C")
0.969
>>> result("A16C G76U")
0.88
>>> result("U47G G80U")
0.163
>>> result("A45C C66U")
0.8
>>> result("U12G A83C")
1.17
>>> result("G29C A87G")
0.086
>>> result("U20A G28C")
0.0573
>>> result("C14U C66A")
0.877
>>> result("C3A C63G")
0.285
>>> result("G10U G38A")
0.103
>>> result("U27A G28A")
0.0811
>>> result("U46G C63A")
0.415
>>> result("A8U U46A")
0.415
>>> result("U12G G31U")
0.277
>>> result("C4G A83U")
0.136
>>> result("G29A C48G")
0.0875
>>> result("C26G C44A")
0.554
>>> result("U46C A70U")
0.957
>>> result("C24A C66G")
0.731
>>> result("C66A U69G")
0.755
>>> result("G1U A70C")
0.302
>>> result("U60G C63U")
0.982
>>> result("U20A C26U")
0.158
>>> result("C85U A87G")
0.963
>>> result("G68U A87G")
0.908
>>> result("C22A C26G")
0.119
>>> result("G53U A71G")
0.843
>>> result("U69G G82A")
0.453
>>> result("C57G A87C")
0.98
>>> result("C44U U65A")
0.846
>>> result("G25U A71U")
0.0396
>>> result("G1C C41U")
0.229
>>> result("C4U A78U")
0.155
>>> result("U65G G73U")
0.47
>>> result("G11U C33G")
0.0594
>>> result("G2C U69C")
0.175
>>> result("C26G G54U")
0.941
>>> result("G80U A83U")
0.181
>>> result("G74U G81A")
0.211
>>> result("U12G C75U")
0
>>> result("G1C U12C")
0.175
